Data provenance is paper PMC12157126.

ASSAY: In situ brain/choroid plexus perfusion with capillary depletion: CNS uptake of [3H]-arginine in absence and presence of transporter inhibitors
Format: in vivo, adult male BALB/c mice
EXPERIMENTAL SETUP: male, BALB/c, mouse, hippocampus, […], Difference (Arginine - Sucrose), hippocampus; + 4mM BCH; 10 mins, 5ml/min; per mouse
RECORDED METRIC: Kp at 10 min

Entry N=C(N)NCCC[C@H](N)C(=O)O [[^3H]-arginine, L-arginine] has what Kp at 10 min?
0.457

----------
ASSAY: In situ brain/choroid plexus perfusion with capillary depletion: CNS uptake of [3H]-arginine in absence and presence of transporter inhibitors
Type: in vivo, adult male BALB/c mice
EXPERIMENTAL SETUP: male, BALB/c, mouse, choroid plexus, Arginine, tissue/plasma ratio, choroid plexus; + 4mM BCH; 10 mins, 5ml/min; per mouse
RECORDED METRIC: Kp at 10 min, […]
Provide a numeric answer; units are not to be included.

Entry N=C(N)NCCC[C@H](N)C(=O)O [[^3H]-arginine, L-arginine] has what Kp at 10 min, […]?
2.01
